Molecular target: NPFF2 receptor (human NPFFR2-CHO cells) (Homo sapiens, UniProt Q9Y5X5)
Sequence (Q9Y5X5 whole entry): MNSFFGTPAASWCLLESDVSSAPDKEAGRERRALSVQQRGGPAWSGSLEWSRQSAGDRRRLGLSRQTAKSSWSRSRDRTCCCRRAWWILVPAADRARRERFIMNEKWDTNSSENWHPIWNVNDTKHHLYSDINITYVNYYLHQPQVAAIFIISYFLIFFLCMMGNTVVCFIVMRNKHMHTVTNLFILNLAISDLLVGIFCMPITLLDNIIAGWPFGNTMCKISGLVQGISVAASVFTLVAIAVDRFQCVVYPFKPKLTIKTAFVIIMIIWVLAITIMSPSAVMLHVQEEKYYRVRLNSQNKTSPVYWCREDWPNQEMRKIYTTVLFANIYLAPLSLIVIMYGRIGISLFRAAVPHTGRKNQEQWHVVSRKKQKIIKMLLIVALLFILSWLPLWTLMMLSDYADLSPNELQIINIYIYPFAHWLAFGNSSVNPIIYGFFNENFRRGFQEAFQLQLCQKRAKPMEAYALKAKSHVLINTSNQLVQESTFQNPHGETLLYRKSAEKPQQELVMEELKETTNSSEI
Assay: Lance cAMP functional Ke assay, NPFF2
Assay type: cell-based
Settings: Table 5
Short version: Kb at least 2000 nM is y, less is n.

{"columns": ["molecule", "label"],
 "data": [
  ["COc1ccc(CN[C@H]2C[C@@H](C(=O)NCCc3ccccc3)N(Cc3ccccc3Cl)C2)cc1 [Compound 24]", "y"],
  ["O=C(NCCc1ccc([N+](=O)[O-])cc1)[C@@H]1C[C@H](NCc2ccc(Cl)cc2)CN1Cc1ccccc1Cl [Compound 63]", "n"],
  ["CCCCCNC(=O)[C@@H]1C[C@H](NCc2ccc(OC)cc2)CN1Cc1ccccc1Cl [Compound 16]", "y"],
  ["COc1ccc(CCNC(=O)[C@@H]2C[C@H](NCc3ccc(OC)cc3)CN2Cc2ccccc2Cl)cc1 [Compound 26]", "y"]
]}

In plain terms: is recorded Kb at least 2000 nM for COc1ccc(CN[C@H]2C[C@@H](C(=O)NCCc3ccc(F)c(F)c3)N(Cc3ccccc3Cl)C2)cc1 [Compound 34] ? y

In plain terms: is recorded Kb at least 2000 nM for O=C(NCCc1ccc([N+](=O)[O-])cc1)[C@@H]1C[C@H](NCc2ccc(F)cc2)CN1Cc1ccccc1Cl [Compound 64] ? n
